# log10(MIC) listing for each entry below
system: Escherichia coli; assay: In vitro synergistic activity against Escherichia coli C600N + (PSE-1); assay type: functional
# values: log10(MIC), units µg/mL

Consider the following illustrative entries.
compound: CCN1CCN(C(=O)NC(C(=O)N[C@@H]2C(=O)N3[C@@H]2SC(C)(C)[C@@H]3C(=O)[O-])c2ccccc2)C(=O)C1=O.C[C@]1(COC(=O)Cc2ccc(O)c(O)c2)[C@H](C(=O)[O-])N2C(=O)/C(=C/c3ccccn3)C2S1(=O)=O.[Na+].[Na+] (stereo partly specified)
log10(MIC): 0.30
--
compound: CCN1CCN(C(=O)N[C@@H](C(=O)N[C@@H]2C(=O)N3[C@@H]2SC(C)(C)[C@@H]3C(=O)O)c2ccccc2)C(=O)C1=O
log10(MIC): 1.51

So what log10(MIC) did C[C@@H](O)[C@H]1C(=O)N2C(C(=O)O)=C(SCCNC=N)C[C@H]12 [IMIPENEM ANHYDROUS] get with Escherichia coli?
-0.92

So what log10(MIC) did `CC(C)(O/N=C(\C(=O)N[C@@H]1C(=O)N2C(C(=O)[O-])=C(C[n+]3ccccc3)CS[C@H]12)c1csc(N)n1)C(=O)O` get with Escherichia coli?
-0.60

So what log10(MIC) did CCN1CCN(C(=O)NC(C(=O)N[C@@H]2C(=O)N3[C@@H]2SC(C)(C)[C@@H]3C(=O)[O-])c2ccccc2)C(=O)C1=O.C[C@]1(Cn2ccnn2)C(C(=O)[O-])N2C(=O)C[C@H]2S1(=O)=O.[Na+].[Na+] (stereo partly specified) get with Escherichia coli?
0.00

###

tested on: Escherichia coli; assay: In vitro synergistic activity against Escherichia coli 4100 (no beta-lactamase); format: functional
endpoint: MIC

Consider the following illustrative entries.
molecule: CCN1CCN(C(=O)NC(C(=O)N[C@@H]2C(=O)N3[C@@H]2SC(C)(C)[C@@H]3C(=O)[O-])c2ccccc2)C(=O)C1=O.C[C@]1(Cn2ccnn2)C(C(=O)[O-])N2C(=O)C[C@H]2S1(=O)=O.[Na+].[Na+] (stereo partly specified)
MIC: < 0.06 µg/mL

molecule: C[C@]1(COC(=O)Cc2ccc(O)c(O)c2)[C@H](C(=O)[O-])N2C(=O)/C(=C/c3ccccn3)C2S1(=O)=O.[Na+] (stereo partly specified)
MIC: > 64 µg/mL

molecule: CC(C)(O/N=C(\C(=O)N[C@@H]1C(=O)N2C(C(=O)[O-])=C(C[n+]3ccccc3)CS[C@H]12)c1csc(N)n1)C(=O)O [CEFTAZIDIME]
MIC: < 0.06 µg/mL

molecule: CCN1CCN(C(=O)N[C@@H](C(=O)N[C@@H]2C(=O)N3[C@@H]2SC(C)(C)[C@@H]3C(=O)O)c2ccccc2)C(=O)C1=O [PIPERACILLIN]
MIC: < 0.06 µg/mL

I would be grateful if you could share the reported MIC for C[C@@H](O)[C@H]1C(=O)N2C(C(=O)O)=C(SCCNC=N)C[C@H]12 [IMIPENEM ANHYDROUS] .
0.12 µg/mL

I would be grateful if you could share the reported MIC for CCN1CCN(C(=O)NC(C(=O)N[C@@H]2C(=O)N3[C@@H]2SC(C)(C)[C@@H]3C(=O)[O-])c2ccccc2)C(=O)C1=O.C[C@]1(COC(=O)Cc2ccc(O)c(O)c2)[C@H](C(=O)[O-])N2C(=O)/C(=C/c3ccccn3)C2S1(=O)=O.[Na+].[Na+] (stereo partly specified) .
< 0.06 µg/mL
